Entries and their viability, T/C
test system: 186277-243-T-J2-PDC complex spheroid viability; assay: Anticancer human tumor 186277-243-T-J2-PDC patient-derived colon adenocarcinoma cell line growth inhibition [GQUAD]; conditions: second compound 0.1 µM; first compound 0.0999 µM; hits give low values
Report as a plain number; the unit % is understood.

Known viability, T/C results, listed for orientation:
COMPOUND	ASSAYED_TARGET	viability, T/C [%]
CCc1c2c(nc3ccc(O)cc13)-c1cc3c(c(=O)n1C2)COC(=O)[C@]3(O)CC + Cc1cnc(CNC(=O)c2c(=O)c3ccc(N4CCCN(C)CC4)nc3n3c2sc2ccccc23)cn1	186277-243-T-J2-PDC complex spheroid viability	23.4
Cc1[nH]c2ccccc2c1CCNCc1ccc(/C=C/C(=O)NO)cc1 + CN(C)c1ccc(Nc2c3ccc(NC(=O)CCN4CCCC4)cc3nc3cc(NC(=O)CCN4CCCC4)ccc23)cc1	186277-243-T-J2-PDC complex spheroid viability	14.9
Cn1ncnc1[C@H]1c2n[nH]c(=O)c3cc(F)cc(c23)N[C@@H]1c1ccc(F)cc1 + Cc1cnc(CNC(=O)c2c(=O)c3ccc(N4CCCN(C)CC4)nc3n3c2sc2ccccc23)cn1	186277-243-T-J2-PDC complex spheroid viability	85.5
Cc1[nH]c2ccccc2c1CCNCc1ccc(/C=C/C(=O)NO)cc1 + Cc1cnc(CNC(=O)c2c(=O)c3ccc(N4CCCN(C)CC4)nc3n3c2sc2ccccc23)cn1	186277-243-T-J2-PDC complex spheroid viability	15.4

Attention now turns to another entry.
Prompt: Output viability, T/C of CCc1c2c(nc3ccc(O)cc13)-c1cc3c(c(=O)n1C2)COC(=O)[C@]3(O)CC + CN(C)c1ccc(Nc2c3ccc(NC(=O)CCN4CCCC4)cc3nc3cc(NC(=O)CCN4CCCC4)ccc23)cc1
Completion: 15.8

---

tested on: 186277-243-T-J2-PDC complex spheroid viability; experiment: Anticancer human tumor 186277-243-T-J2-PDC cell line growth inhibition [GQUAD]; details: second compound 3.16 µM; first compound 0.00999 µM; hits give low values;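 further: spheroids exposed to drugs for 7 days; 100% = DMSO vehicle control viability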
MEASUREMENT_LABEL: viability, T/C (%)
Report as a plain number; the unit % is understood.

Prompt: Output viability, T/C of Cc1[nH]c2ccccc2c1CCNCc1ccc(/C=C/C(=O)NO)cc1 + CN(C)c1ccc(Nc2c3ccc(NC(=O)CCN4CCCC4)cc3nc3cc(NC(=O)CCN4CCCC4)ccc23)cc1
Completion: 96

Prompt: Output viability, T/C of Cn1ncnc1[C@H]1c2n[nH]c(=O)c3cc(F)cc(c23)N[C@@H]1c1ccc(F)cc1 + Cc1[nH]c2ccc(F)cc2c1-c1nc2c3cccnc3c3ncccc3c2[nH]1
Completion: 113

Prompt: Output viability, T/C of Cc1[nH]c2ccccc2c1CCNCc1ccc(/C=C/C(=O)NO)cc1 + Cc1[nH]c2ccc(F)cc2c1-c1nc2c3cccnc3c3ncccc3c2[nH]1
Completion: 100

Prompt: Output viability, T/C of CC[C@@]1(O)C(=O)OCc2c1cc1n(c2=O)Cc2cc3c(CN(C)C)c(O)ccc3nc2-1 + Cc1cnc(CNC(=O)c2c(=O)c3ccc(N4CCCN(C)CC4)nc3n3c2sc2ccccc23)cn1
Completion: 46.7

Prompt: Output viability, T/C of CC[C@@]1(O)C(=O)OCc2c1cc1n(c2=O)Cc2cc3c(CN(C)C)c(O)ccc3nc2-1 + Cc1[nH]c2ccc(F)cc2c1-c1nc2c3cccnc3c3ncccc3c2[nH]1
Completion: 109

Prompt: Output viability, T/C of CC[C@@]1(O)C(=O)OCc2c1cc1n(c2=O)Cc2cc3c(CN(C)C)c(O)ccc3nc2-1 + CN(C)c1ccc(Nc2c3ccc(NC(=O)CCN4CCCC4)cc3nc3cc(NC(=O)CCN4CCCC4)ccc23)cc1
Completion: 105

Prompt: Output viability, T/C of Cc1[nH]c2ccccc2c1CCNCc1ccc(/C=C/C(=O)NO)cc1 + Cc1cnc(CNC(=O)c2c(=O)c3ccc(N4CCCN(C)CC4)nc3n3c2sc2ccccc23)cn1
Completion: 28.3

Prompt: Output viability, T/C of Cn1ncnc1[C@H]1c2n[nH]c(=O)c3cc(F)cc(c23)N[C@@H]1c1ccc(F)cc1 + Cc1cnc(CNC(=O)c2c(=O)c3ccc(N4CCCN(C)CC4)nc3n3c2sc2ccccc23)cn1
Completion: 52.5

Prompt: Output viability, T/C of CCc1c2c(nc3ccc(O)cc13)-c1cc3c(c(=O)n1C2)COC(=O)[C@]3(O)CC + Cc1cnc(CNC(=O)c2c(=O)c3ccc(N4CCCN(C)CC4)nc3n3c2sc2ccccc23)cn1
Completion: 36.5

Prompt: Output viability, T/C of Cn1ncnc1[C@H]1c2n[nH]c(=O)c3cc(F)cc(c23)N[C@@H]1c1ccc(F)cc1 + CN(C)c1ccc(Nc2c3ccc(NC(=O)CCN4CCCC4)cc3nc3cc(NC(=O)CCN4CCCC4)ccc23)cc1
Completion: 107

Prompt: Output viability, T/C of CCc1c2c(nc3ccc(O)cc13)-c1cc3c(c(=O)n1C2)COC(=O)[C@]3(O)CC + Cc1[nH]c2ccc(F)cc2c1-c1nc2c3cccnc3c3ncccc3c2[nH]1
Completion: 45.6

Prompt: Output viability, T/C of CCc1c2c(nc3ccc(O)cc13)-c1cc3c(c(=O)n1C2)COC(=O)[C@]3(O)CC + CN(C)c1ccc(Nc2c3ccc(NC(=O)CCN4CCCC4)cc3nc3cc(NC(=O)CCN4CCCC4)ccc23)cc1
Completion: 49.4
